EC50 for assorted compounds
- Tested on: TLR8 (Homo sapiens)
- Construct: host or cells: HEK293 (HEK-BLUE-hTLR8)
- Sequence (Q9NR97 27-1041): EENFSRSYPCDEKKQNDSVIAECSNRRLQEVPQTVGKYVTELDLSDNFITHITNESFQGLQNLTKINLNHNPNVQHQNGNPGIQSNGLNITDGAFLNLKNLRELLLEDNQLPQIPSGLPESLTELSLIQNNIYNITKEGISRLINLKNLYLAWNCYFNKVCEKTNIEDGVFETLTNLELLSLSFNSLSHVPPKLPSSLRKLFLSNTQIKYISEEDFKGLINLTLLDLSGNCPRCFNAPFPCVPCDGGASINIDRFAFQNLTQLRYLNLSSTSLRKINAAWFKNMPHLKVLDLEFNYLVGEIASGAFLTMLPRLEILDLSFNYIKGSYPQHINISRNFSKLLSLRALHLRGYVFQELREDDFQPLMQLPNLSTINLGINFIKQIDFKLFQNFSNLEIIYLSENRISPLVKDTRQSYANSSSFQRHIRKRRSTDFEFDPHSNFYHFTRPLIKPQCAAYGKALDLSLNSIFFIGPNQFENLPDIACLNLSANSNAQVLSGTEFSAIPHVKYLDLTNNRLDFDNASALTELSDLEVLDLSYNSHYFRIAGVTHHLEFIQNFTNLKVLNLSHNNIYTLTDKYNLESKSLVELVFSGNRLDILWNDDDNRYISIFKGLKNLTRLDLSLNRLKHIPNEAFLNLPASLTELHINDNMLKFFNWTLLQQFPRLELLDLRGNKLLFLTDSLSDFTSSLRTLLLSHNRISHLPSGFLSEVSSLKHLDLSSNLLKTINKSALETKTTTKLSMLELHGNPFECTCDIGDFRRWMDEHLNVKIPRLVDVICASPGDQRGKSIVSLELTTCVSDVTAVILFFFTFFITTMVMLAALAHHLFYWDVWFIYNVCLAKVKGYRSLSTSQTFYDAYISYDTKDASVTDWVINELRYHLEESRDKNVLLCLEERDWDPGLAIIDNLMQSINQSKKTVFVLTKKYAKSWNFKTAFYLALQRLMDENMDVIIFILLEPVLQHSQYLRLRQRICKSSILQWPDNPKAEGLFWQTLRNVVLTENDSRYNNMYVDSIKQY
- Method: TLR8 cell based assay (HEK-BLUE-hTLR8, SEAP reporter linked to NF-κB activation)
- Measurement parameters: HEK-BLUE-hTLR8 cells, 24 h treatment, SEAP/QUANTI-Blue readout
Quantity kind: EC50

INSERT INTO measurements (compound, tested_on, assay_result) VALUES
  ('CCCN(CCC)C(=O)C1=Cc2ccc(-c3ccc4c(=O)n(Cc5ncccn5)ccc4c3)cc2N=C(N)C1 [Compound 1-2-31]', 'TLR8 (Homo sapiens)', '< 100 nM'),
  ('CCCN(CCC)C(=O)C1=Cc2c(F)cc(-c3ccc4c(=O)n(CC(=O)NC)cnc4c3)cc2N=C(N)C1 [Compound 1-10-8]', 'TLR8 (Homo sapiens)', '< 100 nM'),
  ('CCCN(CCC)C(=O)C1=Cc2ccc(-c3ccc4c(=O)n(CCn5cccn5)ccc4c3)cc2N=C(N)C1 [Compound 1-2-32]', 'TLR8 (Homo sapiens)', '< 100 nM'),
  ('CCCN(CCC)C(=O)C1=Cc2ccc(-c3ccc4c(=O)n(CC)ccc4c3)cc2N=C(N)C1 [Compound 1-2-3]', 'TLR8 (Homo sapiens)', '100 to 1000 nM');

Values from patent US10669252B2
